Could you please report measured self-cleavage for the items listed next?
B1: Osa-1-4 twister ribozyme (parent)
chain: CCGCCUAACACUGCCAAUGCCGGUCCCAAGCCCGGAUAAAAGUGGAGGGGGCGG

# Variants of: B1
# assay_comment: self-cleavage, relative activity (ratio to wild type); higher = more cleavage; co-transcriptional
Answers are plain numbers.

mutations	self-cleavage
A39G C20G	0.13

// each listed variant needs a value for self-cleavage
1. A40U G34U
2. C20G U37A
3. A29G G49A
4. A38G G54A
5. A46U C14G
6. C20U C31U
7. G30C G45U
8. A28U G45U

Result ::
[0.18, 0.2, 0.05, 0.92, 0.03, 0.92, 0.02, 0.07]

State the recorded self-cleavage for every item in the following list.
1. A46G G45A
2. C52U G51C
3. C14A U37A
4. A17G A40C
5. A39C C33G
6. C32U G22C

Result ::
1: 0.06; 2: 0.13; 3: 0.07; 4: 0.09; 5: 0.07; 6: 0.04

// batch mode: one self-cleavage value per listed entry
1. A29G G30U
2. A36U C33A
3. C15A G51U
4. A28G C14G
5. C31A U37C
6. A36G G50A
7. C25U C27U
8. A39U G30C

Result ::
1: 0.04; 2: 0.24; 3: 0.07; 4: 0.15; 5: 0.04; 6: 0.76; 7: 0.17; 8: 0.05
